target: human IL-17RA on cells (human PBMC; human foreskin fibroblasts) (human, UniProt Q96F46 33-866); assay: cell-based or functional assay
Observed Property: % Inhib. of IL-5 production (TSLP treated human PBMC + IL-2 + IL-25), Expt. 1 (%)
Give bare numbers, in %.

Binder	Unit String	Readout Number
3.1545.1 (antibody, V domains shown) VH: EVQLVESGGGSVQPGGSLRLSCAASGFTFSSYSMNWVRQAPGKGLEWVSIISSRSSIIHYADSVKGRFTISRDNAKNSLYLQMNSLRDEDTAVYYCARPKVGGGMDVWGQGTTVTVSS VL: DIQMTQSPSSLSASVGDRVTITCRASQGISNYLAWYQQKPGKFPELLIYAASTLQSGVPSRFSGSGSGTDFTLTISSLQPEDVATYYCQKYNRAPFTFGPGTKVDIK	%	0
2.67.1 (antibody, V domains shown) VH: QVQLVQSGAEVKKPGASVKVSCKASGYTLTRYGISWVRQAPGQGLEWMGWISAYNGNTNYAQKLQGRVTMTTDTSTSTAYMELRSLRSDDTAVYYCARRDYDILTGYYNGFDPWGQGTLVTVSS VL: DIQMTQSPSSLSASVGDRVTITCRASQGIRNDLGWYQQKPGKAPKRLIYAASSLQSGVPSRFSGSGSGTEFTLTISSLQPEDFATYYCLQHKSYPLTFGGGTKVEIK	%	0
3.381.1 (antibody, IgG2, V domains shown) VH: QVQLVQSGAEVKKPGASVKVSCKASGYTFTRYGISWVRQAPGQGLEWMGWISAYSGNTNYAQKLQGRVTMTTDTSTSTAYMELRSLRSDDTAVYYCARRQLYFDYWGQGTLVTVSS VL: EIVMTQSPATLSVSPGERVTLSCRASQSVSSNLAWFQQKPGQAPRPLIYDASTRAAGIPARFSGSGSGTDFTLTISSLQSEDFAVYYCQQYDNWPLTFGGGTKVEIK	%	69

Sample 4.357.1 (antibody, V domains shown) VH: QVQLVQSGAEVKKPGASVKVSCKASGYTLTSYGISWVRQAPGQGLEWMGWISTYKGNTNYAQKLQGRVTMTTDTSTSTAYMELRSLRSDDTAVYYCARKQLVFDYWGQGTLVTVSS VL: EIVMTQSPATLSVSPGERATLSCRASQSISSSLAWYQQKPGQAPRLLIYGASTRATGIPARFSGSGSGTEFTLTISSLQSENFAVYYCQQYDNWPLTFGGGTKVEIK ; % Inhib. of IL-5 production (TSLP treated human PBMC + IL-2 + IL-25), Expt. 1 observed: 0

Each recorded value in this set is attributed to patent US20170114140A1.
